Values were extracted from ChEMBL document CHEMBL1136571.

Experiment: Half-life period in rats following intravenous administration at 2 mg/kg
Type: ADME, organism-based
Design: dose 2 mg/kg, route intravenous
Details: rat, in vivo
PROPERTY: half-life (min)
# unit: min | format: bare number

Tell me half-life reported for CC(=N)N1CCC(Oc2ccc3c(c2)OCC(=O)N3Cc2ccc3ccc(C(=N)N)cc3c2)CC1
30

====

Target: Coagulation factor X (Homo sapiens, UniProt P00742)
Sequence (P00742 41-179 limits assumed): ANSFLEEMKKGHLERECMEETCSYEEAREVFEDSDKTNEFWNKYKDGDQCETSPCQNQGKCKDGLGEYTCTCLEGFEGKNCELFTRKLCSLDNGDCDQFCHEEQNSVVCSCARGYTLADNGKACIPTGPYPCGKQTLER
Sequence (P00742 235-488 limits assumed): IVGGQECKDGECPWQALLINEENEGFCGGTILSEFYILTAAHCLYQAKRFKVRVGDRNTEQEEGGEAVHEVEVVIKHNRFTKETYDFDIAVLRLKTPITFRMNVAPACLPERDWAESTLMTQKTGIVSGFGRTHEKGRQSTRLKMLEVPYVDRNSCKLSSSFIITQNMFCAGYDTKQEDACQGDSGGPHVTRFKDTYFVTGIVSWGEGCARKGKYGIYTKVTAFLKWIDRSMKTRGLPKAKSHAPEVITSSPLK
Assay: Inhibitory concentration to factor Xa
Assignment: determine reported log10(IC50) for the given compounds.
Transform log10 | Measure IC50 | Unit nM

Provide one value: measured log10(IC50) of Cc1cc(CN(c2ccc(-c3ccccc3S(N)(=O)=O)cc2)S(C)(=O)=O)n(-c2cccc(C(=N)N)c2)n1
2.70

Kindly indicate its recorded log10(IC50). Item: CC(=N)N1CCC(Oc2ccc(N(Cc3ccc4ccc(C(=N)N)cc4c3)S(C)(=O)=O)cc2)CC1
0.78

Please supply the value of reported log10(IC50) for the item CC(=N)N1CCC(Oc2ccc(N(Cc3cc4ccc(C(=N)N)cc4n3C)S(C)(=O)=O)cc2)CC1
-0.10

Provide one value: measured log10(IC50) of CCOC(=O)CS(=O)(=O)N(Cc1cccc(-c2cccc(C(=N)N)c2)c1)c1ccc(OC2CCN(C(C)=N)CC2)cc1
0.85

Identify the reported log10(IC50) for the following entry. CC(=N)N1CCC(Oc2ccc(N(Cc3ccccc3-c3cccc(C(=N)N)c3)S(C)(=O)=O)cc2)CC1
3.85

Indicate its recorded log10(IC50); the compound in question is CS(=O)(=O)N(Cc1cccc(-c2cccc(C(=N)N)c2)c1)c1ccc(-c2ccccc2S(N)(=O)=O)cc1
2.28

State, in one line, measured log10(IC50) of CCn1c(CN2C(=O)COc3cc(OC4CCN(C(C)=N)CC4)ccc32)cc2ccc(C(=N)N)cc21
0.30

Provide measured log10(IC50) value, entry: CC(=N)N1CCC(Oc2ccc(N(Cc3cc4cc(C(=N)N)ccc4n3C)S(C)(=O)=O)cc2)CC1
1.49

Indicate its recorded log10(IC50); the compound in question is CC(=N)N1CCN(C(=O)c2ccc(N(Cc3ccc4ccc(C(=N)N)cc4c3)S(C)(=O)=O)cc2)CC1
3.20

Find the measured log10(IC50) of CS(=O)(=O)N(Cc1ccc2ccc(C(=N)N)cc2c1)c1ccc(-c2ccccc2S(N)(=O)=O)cc1 and report it.
2.18

Note log10(IC50) for the compound shown: CC(=N)N1CCC(Oc2ccc(N(Cc3cccc(-c4cccc(C(=N)N)c4)c3)S(=O)(=O)CC(=O)O)cc2)CC1
0.48
